Recorded values, source ChEMBL document CHEMBL1201862.

Assign GI50 to each entry below.
System: LOX IMVI
Test: NCI tumour cell line growth inhibition, 48 h
Active and inactive are the calls of the source. Rule as the data show it: active = GI50 up to about 1.1 µM and inactive = higher.

Solved cases (4 shown):
Cc1cccc2[n+]1[C@H]1[C@H]([C@@H]3O[C@H]1c1ccccc13)[S+]([O-])N2 (stereo not given in full) = 25.9 µM (inactive)
O=C(/C(=C\c1ccccc1)CN1CCOCC1)c1ccc(Br)cc1 = 1.65 µM (inactive)
COc1ccc2c(cnc3c4cc(OC)c(OC)cc4ccc23)c1 = > 100 µM (inactive)
COC(=O)/C(=N\NC(N)=O)C(C(=O)C=C(C)C)C(=O)C(=O)Nc1ccc(Cl)c(Cl)c1 (stereo not given) = > 100 µM (inactive)

Next up:
Param item: O=C(O)CCC(NC(=O)c1ccc(Nc2cnc3ccc(C(F)(F)F)cc3n2)cc1)C(=O)O (stereo not given) ; param system: LOX IMVI; output GI50: > 100 µM (inactive)
